Cited source for all entries: patent US20190092852A1

Attribute: koff
- TARGET OR SYSTEM: T1, human IL-33 (R&D Systems, #3625-IL-010/CF) (human) (UniProt O95760)
- T1 sequence (looked up): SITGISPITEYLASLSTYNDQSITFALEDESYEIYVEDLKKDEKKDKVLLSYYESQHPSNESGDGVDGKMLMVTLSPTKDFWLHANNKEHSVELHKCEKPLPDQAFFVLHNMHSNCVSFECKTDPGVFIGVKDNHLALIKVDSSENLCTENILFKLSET
- ASSAY EXPLANATION: SPR Biacore T200, 37 C
// note: answer is a bare numeric in s⁻¹

Illustrative cases are given below, each with its answer.
H4H9666P (antibody, from another filing, IgG4, V domains shown) VH: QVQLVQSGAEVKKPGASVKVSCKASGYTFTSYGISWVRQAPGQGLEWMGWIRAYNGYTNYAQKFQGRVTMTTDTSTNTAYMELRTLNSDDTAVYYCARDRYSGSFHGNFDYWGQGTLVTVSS VL: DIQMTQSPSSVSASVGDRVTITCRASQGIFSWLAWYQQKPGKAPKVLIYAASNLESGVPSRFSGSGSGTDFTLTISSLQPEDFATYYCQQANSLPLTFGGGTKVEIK : 0.00158
H4H9672P (antibody, from another filing, IgG4, V domains shown) VH: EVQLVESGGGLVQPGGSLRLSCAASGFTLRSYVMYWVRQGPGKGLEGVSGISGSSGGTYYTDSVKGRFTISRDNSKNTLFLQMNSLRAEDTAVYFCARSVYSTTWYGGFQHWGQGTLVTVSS VL: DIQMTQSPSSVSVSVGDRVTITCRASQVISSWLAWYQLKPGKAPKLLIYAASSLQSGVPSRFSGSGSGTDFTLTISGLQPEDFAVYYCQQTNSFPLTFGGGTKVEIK : 0.00127
H4H9662P (antibody, from another filing, IgG4, V domains shown) VH: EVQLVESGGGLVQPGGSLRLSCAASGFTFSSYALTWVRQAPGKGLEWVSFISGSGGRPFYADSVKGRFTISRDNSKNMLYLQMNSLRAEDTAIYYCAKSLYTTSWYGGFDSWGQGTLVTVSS VL: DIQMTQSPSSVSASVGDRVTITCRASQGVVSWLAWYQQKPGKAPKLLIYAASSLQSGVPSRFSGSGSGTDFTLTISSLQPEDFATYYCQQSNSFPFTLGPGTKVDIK : 0.000566

QUERY: Requested field: koff. Item: H4H9667P (antibody, from another filing, IgG4, V domains shown) VH: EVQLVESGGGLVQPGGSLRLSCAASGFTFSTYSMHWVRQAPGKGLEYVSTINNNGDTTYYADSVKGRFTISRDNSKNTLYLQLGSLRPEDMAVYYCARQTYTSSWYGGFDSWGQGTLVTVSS VL: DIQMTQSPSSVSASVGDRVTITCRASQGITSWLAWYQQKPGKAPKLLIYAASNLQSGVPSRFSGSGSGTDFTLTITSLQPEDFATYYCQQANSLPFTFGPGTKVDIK
RESULT: 0.000497
